Listing of recorded hERG current change (%, negative = inhibition) at 10uM by entry.
systemUnderTest: human ether-à-go-go-related gene (hERG) potassium channel (human, UniProt Q12809);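 note: peak tail current of the secondary pulse compared with the same well before compound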
Sequence (Q12809 whole entry, looked up): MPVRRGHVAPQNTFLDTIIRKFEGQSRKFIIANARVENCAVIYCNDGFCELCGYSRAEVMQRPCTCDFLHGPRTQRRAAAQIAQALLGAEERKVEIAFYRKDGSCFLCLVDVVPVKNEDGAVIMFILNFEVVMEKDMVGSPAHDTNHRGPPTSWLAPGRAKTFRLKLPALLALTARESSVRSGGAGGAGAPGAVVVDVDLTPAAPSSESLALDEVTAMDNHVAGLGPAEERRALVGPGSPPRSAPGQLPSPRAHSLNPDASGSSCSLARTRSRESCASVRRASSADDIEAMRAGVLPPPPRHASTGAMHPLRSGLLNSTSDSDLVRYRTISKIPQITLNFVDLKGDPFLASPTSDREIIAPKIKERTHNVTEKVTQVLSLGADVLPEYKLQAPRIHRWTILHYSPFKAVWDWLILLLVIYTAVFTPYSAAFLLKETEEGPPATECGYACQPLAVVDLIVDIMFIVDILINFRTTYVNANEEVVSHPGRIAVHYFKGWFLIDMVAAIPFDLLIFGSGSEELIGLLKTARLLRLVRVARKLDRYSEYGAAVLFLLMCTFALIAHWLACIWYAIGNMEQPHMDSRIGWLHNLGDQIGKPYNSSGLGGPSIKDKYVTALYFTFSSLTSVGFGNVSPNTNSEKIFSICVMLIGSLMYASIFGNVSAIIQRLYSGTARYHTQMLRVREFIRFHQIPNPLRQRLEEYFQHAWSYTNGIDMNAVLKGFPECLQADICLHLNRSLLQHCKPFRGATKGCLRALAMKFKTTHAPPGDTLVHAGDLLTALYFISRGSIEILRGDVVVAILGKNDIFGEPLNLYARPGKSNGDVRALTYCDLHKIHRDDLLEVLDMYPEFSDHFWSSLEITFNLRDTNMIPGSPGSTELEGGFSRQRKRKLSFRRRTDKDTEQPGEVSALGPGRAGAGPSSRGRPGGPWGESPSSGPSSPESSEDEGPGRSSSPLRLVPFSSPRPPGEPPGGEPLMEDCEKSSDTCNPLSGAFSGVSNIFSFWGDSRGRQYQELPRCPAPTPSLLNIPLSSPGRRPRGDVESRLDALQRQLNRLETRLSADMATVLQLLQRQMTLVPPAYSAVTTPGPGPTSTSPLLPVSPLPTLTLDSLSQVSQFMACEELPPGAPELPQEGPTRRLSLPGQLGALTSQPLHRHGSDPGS
assayInfo: primary screen, population patch clamp on CHO cells stably expressing hERG; higher = less effect of the substance
The campaign covered roughly 310,000 compounds. About 14,000 (4.5%) showed an effect of 50% or more. Effects have a minus sign here. This is one part of a sample in which strong results are shown more often than they occur.
Respond numerically; units are % and should not be typed.

Prompt: Reported hERG current change (%, negative = inhibition) at 10uM, compound `Cl.Oc1cccc(Nc2nc(-c3ccccc3Cl)nc3ccccc23)c1` : ____
Completion: 7.09

Prompt: Same read-out for `O=c1c2c(-c3ccc(Cl)cc3)csc2nc2n1CCC2` ?
Completion: -28.9

Prompt: Same read-out for CCC(=O)OC1(C)C(=O)C=C2C=C(CCCCNC(=O)OC(C)(C)C)OC=C2C1=O (stereo not drawn) ?
Completion: 6.58

Prompt: Same read-out for `COc1ccc(C(=O)N2CCN(c3cnn(-c4ccccc4)c(=O)c3Cl)CC2)cc1` ?
Completion: -71.3

Prompt: Same read-out for CC1COc2c(N3CCN(C)CC3)c(F)cc3c(=O)c(C(=O)O)cn1c23 (stereo not drawn) ?
Completion: 18.2

* * *

Listing of recorded hERG current change (%, negative = inhibition) at 10uM by entry.
systemUnderTest: human ether-à-go-go-related gene (hERG) potassium channel (human);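 note: peak tail current of the secondary pulse compared with the same well before compound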
assayInfo: primary screen, population patch clamp on CHO cells stably expressing hERG; higher = less effect of the substance
Among all 310,000 compounds or so, about 14,000 (4.5%) showed an effect of 50% or more. The effect is printed as a negative number. Many of the other results were omitted from the sample, so strong results are more common in it than they were.
Respond numerically; units are % and should not be typed.

[
  {
    "molSmiles": "O=C(O/N=C\\c1ccc(N2CCOCC2)c([N+](=O)[O-])c1)c1ccc(F)cc1",
    "systemUnderTest": "human ether-à-go-go-related gene (hERG) potassium channel (human)",
    "quantitativeReadout": -6.14
  },
  {
    "molSmiles": "CSc1cccc(NC(=O)CCCOc2ccc(Cl)cc2C)c1",
    "systemUnderTest": "human ether-à-go-go-related gene (hERG) potassium channel (human)",
    "quantitativeReadout": -2.48
  },
  {
    "molSmiles": "O=C(c1ccco1)N1CCN(Cc2cccc(C(F)(F)F)c2)CC1",
    "systemUnderTest": "human ether-à-go-go-related gene (hERG) potassium channel (human)",
    "quantitativeReadout": -5.15
  },
  {
    "molSmiles": "NC(=O)COc1ccc(C23CC4CC(CC(C4)C2)C3)cc1",
    "systemUnderTest": "human ether-à-go-go-related gene (hERG) potassium channel (human)",
    "quantitativeReadout": 7.2
  },
  {
    "molSmiles": "CCN1CCN(c2cc(C)c3cc(NC(=O)c4ccc(OC)c(OC)c4)ccc3n2)CC1",
    "systemUnderTest": "human ether-à-go-go-related gene (hERG) potassium channel (human)",
    "quantitativeReadout": -46
  },
  {
    "molSmiles": "CO/N=C/c1ccc(N2CCN(C(=O)c3cccc(C(F)(F)F)c3)CC2)c([N+](=O)[O-])c1",
    "systemUnderTest": "human ether-à-go-go-related gene (hERG) potassium channel (human)",
    "quantitativeReadout": -43.5
  },
  {
    "molSmiles": "O=C(c1ccco1)N1CCN(C(=O)c2ccc(-c3cccc(C(F)(F)F)c3)o2)CC1",
    "systemUnderTest": "human ether-à-go-go-related gene (hERG) potassium channel (human)",
    "quantitativeReadout": -79.9
  },
  {
    "molSmiles": "C/C(=N\\NC(=O)c1ccc(F)cc1)c1ccc(N2CCOCC2)cc1",
    "systemUnderTest": "human ether-à-go-go-related gene (hERG) potassium channel (human)",
    "quantitativeReadout": -16.7
  },
  {
    "molSmiles": "CCOc1ccc(Br)cc1S(=O)(=O)Nc1ccc(C(=O)OCC(=O)N(C)c2ccccc2)cc1",
    "systemUnderTest": "human ether-à-go-go-related gene (hERG) potassium channel (human)",
    "quantitativeReadout": 12.7
  },
  {
    "molSmiles": "CCC(C)(C)NC(=O)c1ccc2c(c1)S(=O)(=O)c1ccccc1C2=O",
    "systemUnderTest": "human ether-à-go-go-related gene (hERG) potassium channel (human)",
    "quantitativeReadout": -16.8
  }
]

Prompt: Reported hERG current change (%, negative = inhibition) at 10uM, compound `Cc1ccccc1NC1=NS(=O)(=O)c2ccccc21` : ____
Completion: 4.25

Prompt: Same read-out for `O=C(O)CCN1c2ccccc2Sc2ccccc21` ?
Completion: 16.5

Prompt: Same read-out for `Cc1cc(C)cc(NC(=O)CCCn2nc(C)c3c(C)n(-c4ccccc4)nc3c2=O)c1` ?
Completion: -4.07

Prompt: Same read-out for `CCOC(=O)C(CCCCCOc1ccc([N+](=O)[O-])cc1)C(=O)OCC` ?
Completion: -50.4

Prompt: Same read-out for `CCOc1ccc(OCC(=O)Nc2ccc(S(N)(=O)=O)cc2)cc1` ?
Completion: -7.32

* * *

Listing of recorded hERG current change (%, negative = inhibition) at 10uM by entry.
systemUnderTest: human ether-à-go-go-related gene (hERG) potassium channel (human);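 note: peak tail current of the secondary pulse compared with the same well before compound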
assayInfo: primary screen, population patch clamp on CHO cells stably expressing hERG; higher = less effect of the substance
Protocol: Briefly, Chinese hamster ovary (CHO) cells stably expressing the hERG channel were dislodged from tissue culture flasks and dispensed into PPC plates. […] During the recording, background leak currents were estimated by a 100 ms step to -80 mV from an initial holding potential of -70 mV and subtracted from the subsequent current measurement. The campaign was conducted in two phases using slight differences in recording protocol. […]
About 14,000 (4.5%) of roughly 310,000 compounds showed an effect of 50% or more. The effect is printed as a negative number. The entries come from a sample that favours strong results as a whole.
Respond numerically; units are % and should not be typed.

// worked examples, hERG current change (%, negative = inhibition) at 10uM included
[
  {
    "compound": "COc1ccc(CCN2CC(C(=O)N(C)Cc3ccc(C)o3)CCC2=O)cc1 (stereo not shown)",
    "quantitativeReadout": -6.77
  },
  {
    "compound": "C#CCOCCOCCOCCNc1nc(N2CCN(C(=O)C(Cc3ccc(O)cc3)n3cc(C(N)C(C)CC)nn3)CC2)nc(N2CCN(C(=O)C(Cc3ccc(O)cc3)n3cc(C(N)C(C)CC)nn3)CC2)n1.Cl (stereo not shown)",
    "quantitativeReadout": -13.3
  },
  {
    "compound": "C/C(=N/NC(=O)c1ccc(Br)o1)c1cccc(NC(=O)c2ccc(F)cc2)c1",
    "quantitativeReadout": -58.9
  }
]

// below: hERG current change (%, negative = inhibition) at 10uM requested for another compound
Prompt: Reported hERG current change (%, negative = inhibition) at 10uM, compound O=C(NCc1ccccc1)C(c1ccc(F)cc1)N(Cc1ccco1)C(=O)c1ccccn1 (stereo not shown) : ____
Completion: -24.4

* * *

Listing of recorded hERG current change (%, negative = inhibition) at 10uM by entry.
systemUnderTest: human ether-à-go-go-related gene (hERG) potassium channel (human, UniProt Q12809);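 note: peak tail current of the secondary pulse compared with the same well before compound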
assayInfo: primary screen, population patch clamp on CHO cells stably expressing hERG; higher = less effect of the substance
The campaign covered roughly 310,000 compounds. About 14,000 (4.5%) showed an effect of 50% or more. The effect is printed as a negative number. This excerpt belongs to a sample that is enriched for strong results.
Respond numerically; units are % and should not be typed.

[
  {
    "compound": "O=C(CSc1ccc(Cl)cc1)N/N=C/c1ccc([N+](=O)[O-])o1",
    "quantitativeReadout": -12.5
  },
  {
    "compound": "CCOC(=O)c1sc(NC(=S)NC(=O)C23CC4CC(CC(C4)C2)C3)cc1C",
    "quantitativeReadout": 20.2
  },
  {
    "compound": "Cc1ccc(CNC(=O)CCC2CCCN(Cc3cc4ccccc4o3)C2)o1 (stereo not shown)",
    "quantitativeReadout": -69.2
  },
  {
    "compound": "COc1ccc(CN2CCc3ccccc3C2)c(OC)c1",
    "quantitativeReadout": -28.4
  },
  {
    "compound": "O=C(CCNC(=O)c1ccco1)NCCc1ccc(Cl)cc1",
    "quantitativeReadout": -1.83
  }
]

Prompt: Value wanted: hERG current change (%, negative = inhibition) at 10uM (human ether-à-go-go-related gene (hERG) potassium channel (human, UniProt Q12809)) of entry `O=C(NC1CCN(Cc2nnnn2CCc2ccccc2)CC1)c1ccccc1F`
Completion: -3.18

Prompt: Same read-out for `Cc1cccc(C(=O)O/N=C2\CCS(=O)(=O)c3sccc32)c1` ?
Completion: 1.16
